The measurements presented in this section are drawn from ChEMBL document CHEMBL5729315.

target: Metabotropic glutamate receptor 5 (Homo sapiens, UniProt P41594); assay: Radioligand Binding Assay at Cloned Human mGluR5 Receptor Subtype: Affinity at transmembrane glutamate metabotropic cloned human mGluR5 receptor was evaluated according to the methods of Anderson (Anderson et al., J Pharmacol. Exp. Ther., (2002), Vol. 303(3), pp. 1044-51), with some modifications. Human cloned mGluR5 was obtained by re-suspending CHO T-REx h-mGluR5 cells (50 μg/well) in 20 mM HEPES, 2 mM MgCl2, 2 mM CaCl2, pH 7.4, that then were incubated in a final volume of 1 ml for 60 min at 25° C. with 4 nM [3H]MPEP in the absence or presence of competing drugs. Non-specific binding was determined in the presence of 10 μM MPEP. The incubation was stopped by addition of cold Tris buffer pH 7.4 and rapid filtration through 0.2% polyethyleneimine pretreated Filtermat 1204-401 (Perkin Elmer) filters. The filters were then washed with cold buffer and the radioactivity retained on the filters was counted by liquid scintillation spectrometry (Betaplate 1204 BS-Wallac).
Sequence (P41594 whole entry): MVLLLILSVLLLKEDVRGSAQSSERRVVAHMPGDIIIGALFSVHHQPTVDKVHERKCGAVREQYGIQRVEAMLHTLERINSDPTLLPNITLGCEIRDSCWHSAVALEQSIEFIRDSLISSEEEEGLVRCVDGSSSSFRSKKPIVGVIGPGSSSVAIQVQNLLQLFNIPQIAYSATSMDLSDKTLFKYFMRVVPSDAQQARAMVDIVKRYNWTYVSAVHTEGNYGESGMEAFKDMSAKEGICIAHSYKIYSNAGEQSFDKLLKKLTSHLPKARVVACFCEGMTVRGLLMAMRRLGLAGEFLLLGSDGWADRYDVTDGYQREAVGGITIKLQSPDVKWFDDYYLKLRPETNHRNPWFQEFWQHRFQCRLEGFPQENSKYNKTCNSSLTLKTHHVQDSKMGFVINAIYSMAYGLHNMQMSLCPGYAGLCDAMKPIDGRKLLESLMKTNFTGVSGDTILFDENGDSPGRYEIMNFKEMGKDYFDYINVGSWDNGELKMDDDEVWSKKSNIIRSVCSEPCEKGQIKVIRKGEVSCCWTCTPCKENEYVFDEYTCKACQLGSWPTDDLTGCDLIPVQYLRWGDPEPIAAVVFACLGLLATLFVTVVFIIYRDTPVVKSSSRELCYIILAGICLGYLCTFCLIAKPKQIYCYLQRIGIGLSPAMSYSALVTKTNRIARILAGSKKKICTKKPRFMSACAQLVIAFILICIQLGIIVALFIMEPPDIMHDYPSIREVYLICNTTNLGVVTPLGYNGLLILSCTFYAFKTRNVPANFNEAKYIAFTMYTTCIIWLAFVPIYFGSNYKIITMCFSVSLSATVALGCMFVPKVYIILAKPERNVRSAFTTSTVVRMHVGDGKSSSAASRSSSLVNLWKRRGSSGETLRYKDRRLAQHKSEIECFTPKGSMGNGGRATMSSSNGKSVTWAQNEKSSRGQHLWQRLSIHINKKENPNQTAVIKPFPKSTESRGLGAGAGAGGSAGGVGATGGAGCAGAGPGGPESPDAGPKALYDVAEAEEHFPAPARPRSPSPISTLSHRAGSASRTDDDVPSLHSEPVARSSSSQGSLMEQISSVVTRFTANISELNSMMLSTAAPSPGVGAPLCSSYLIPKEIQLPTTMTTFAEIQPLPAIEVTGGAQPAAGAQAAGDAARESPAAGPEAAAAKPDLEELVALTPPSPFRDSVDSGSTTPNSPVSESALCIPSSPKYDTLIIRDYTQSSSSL
pKi: −log10 of the molar value.
readout: pKi

1 = Cc1cccc(C#CC=C2CC(C)(C)NC(C)(C)C2)n1
2 = COc1cc(OC)nc(C(=O)N2CC/C(=C\C#Cc3cccc(Cl)c3)C(C)(C)C2)n1
Between 1 and 2 , which one shows the smaller pKi number? Record your answer as the label of the chosen record. 1
(1: 7.57, 2: 8.65)
